From: patent US20090305954A1

Test system: Murine Lewis lung carcinoma (LLC) cell line
Test: XTT proliferation (cytotoxicity) assay, LLC
Format: cell-based
Settings: pH 7.4, 24 h
Square brackets hold non-standard residues; d marks the D form. Peptide text beside a SMILES is read from it.

{"compound": "CC(C)C[C@H](NC(=O)[C@H](CC(C)C)NC(=O)[C@@H](CCCCN)NC(=O)[C@H](CC(C)C)NC(=O)[C@H](CC(C)C)NC(=O)[C@H](Cc1c[nH]cn1)NC(=O)[C@@H](CCCCN)NC(=O)[C@@H](CC(C)C)NC(=O)[C@H](CC(C)C)NC(=O)[C@@H](CCCCN)NC(=O)[C@H](Cc1c[nH]cn1)NC(=O)[C@H](CC(C)C)NC(=O)[C@@H](CC(C)C)NC(=O)[C@H](Cc1c[nH]cn1)NC(=O)[C@@H](N)CC(C)C)C(N)=O [Peptide 14] (H-LH[dL]LH[dK]L[dL][dK]HLL[dK]LL-NH2)", "target_entity": "Murine Lewis lung carcinoma (LLC) cell line", "unit": "µg/mL", "Lethal Concentration (LC50)": 50}
